Test system: tumour
Experiment: Dosimetry with regard to the tumour (MIRD programme, extrapolated to ^131I)
Settings: extrapolated to 131I labelling
Counter-ions that a name gives are not always drawn.
Binary label based on Effective period with cut-off 30 h: below gives 1, not below gives -1.

Solved entries (count: 7):
{"compound": "CCN(CC)CCNC(=O)c1cccc2c(=O)c3cc(I)ccc3[nH]c12 [compound 84, hydrochloride]", "class label": -1}
{"compound": "CCN(CC)CCNC(=O)c1ccc(I)cc1 [BZA, N-(2-diethylaminoethyl)-4-iodobenzamide, reference compound]", "class label": 1}
{"compound": "CCN(CC)CCNC(=O)c1cnc2cc(I)ccc2n1.Cl.Cl [compound 46]", "class label": -1}
{"compound": "CCN(CC)CCNC(=O)c1nc2ccccn2c1I [compound 16, dihydrochloride]", "class label": 1}
{"compound": "CCN(CC)CCNC(=O)c1ccc(I)nc1 [compound 7, dihydrochloride]", "class label": 1}
{"compound": "CCN(CC)CCNC(=O)c1cc2c(I)cccc2s1.Cl [compound 13]", "class label": 1}
{"compound": "CCN(CC)CCNC(=O)c1cc2c(I)cccc2cn1 [compound 39, dihydrochloride]", "class label": -1}

Then this compound:
Enquiry: Below 30 h on Effective period? Entry CCN(CC)CCNC(=O)c1ccc2cncc(I)c2n1.Cl.Cl [compound 142]
Return: 1

----------
System: grafted B16 F0 murine melanoma tumour
Test: Biodistribution of the ^125I-labelled molecules in the melanoma-bearing mouse (autoradiography of whole-body sections)
Conditions: 6 H after i.v. administration, ^125I-labelled compound
Structures can show the parent of a compound that is named as a salt.
metric name: Concentration of radioactivity, Ic (intestinal contents), Mean

Solved entries:
{"compound": "CCN(CC)CCNC(=O)c1ccc2cc(I)ccc2n1.Cl.Cl", "test result": "23.36 % ID/g"}
{"compound": "CCN(CC)CCNC(=O)c1ccc2cc(I)ccc2c1 [compound 3, hydrochloride]", "test result": "18.72 % ID/g"}
{"compound": "CCN(CC)CCNC(=O)c1nc2ccccn2c1I [compound 16, dihydrochloride]", "test result": "26.14 % ID/g"}
{"compound": "CCN(CC)CCNC(=O)c1nc2ccc(I)cc2[nH]1.Cl.Cl", "test result": "95.86 % ID/g"}
{"compound": "CCN(CC)CCNC(=O)c1cc2c(I)cccc2s1.Cl", "test result": "37.70 % ID/g"}

Note to self: Concentration of radioactivity, Ic (intestinal contents), Mean recorded for CCN(CC)CCNC(=O)c1ccc(I)nc1 [compound 7, dihydrochloride] was 2.98 % ID/g

Note to self: Concentration of radioactivity, Ic (intestinal contents), Mean recorded for CCN(CC)CCNC(=O)c1cc2cc(I)ccc2[nH]1 [compound 10, hydrochloride] was 79.85 % ID/g

----------
System: grafted B16 F0 murine melanoma tumour
Assay: Biodistribution of the ^125I-labelled molecules in the melanoma-bearing mouse (autoradiography of whole-body sections)
Settings: liver; 24 H
Where a name gives a salt, the structure may show the parent alone.
metric name: Biodistribution, Mean, liver
// keep it numeric: no unit symbol after the value

Solved entries:
{"compound": "CCN(CC)CCNC(=O)c1cnc2cc(I)ccc2n1.Cl.Cl", "Biodistribution, Mean, liver": 1.49}
{"compound": "CCN(CC)CCNC(=O)c1cccc2cc3cc(I)ccc3nc12 [compound 111, dihydrochloride]", "Biodistribution, Mean, liver": 0.48}
{"compound": "CCN(CC)CCNC(=O)c1c[nH]c2ccc(I)cc2c1=O [compound 35, dihydrochloride]", "Biodistribution, Mean, liver": 0.07}

As a next step, examine the compound that follows.
Note to self: Biodistribution, Mean, liver recorded for CCN(CC)CCNC(=O)c1cc2c(I)cccc2cn1 [compound 39, dihydrochloride] was 0.43

----------
Test system: grafted B16 F0 murine melanoma tumour
Assay: Biodistribution of the ^125I-labelled molecules in the melanoma-bearing mouse (autoradiography of whole-body sections)
Settings: 3 H after i.v. administration, ^125I-labelled compound
Structures can show the parent of a compound that is named as a salt.
metric name: Concentration of radioactivity, pancreas, Mean (% ID/g)
Dear colleague, please return just the value in % ID/g, with no unit written.

Solved entries:
{"molecule": "CCN(CC)CCNC(=O)c1ccc(I)nc1 [compound 7, dihydrochloride]", "test result": 2.53}
{"molecule": "CCN(CC)CCNC(=O)c1cc2cc(I)ccc2[nH]1 [compound 10, hydrochloride]", "test result": 2.48}
{"molecule": "CCN(CC)CCNC(=O)c1ccc2cc(I)ccc2c1 [compound 3, hydrochloride]", "test result": 8.19}

Note to self: Concentration of radioactivity, pancreas, Mean recorded for CCN(CC)CCNC(=O)c1ccc2cc(I)ccc2n1.Cl.Cl [compound 31] was 6.17

----------
Test system: grafted B16 F0 murine melanoma tumour
Assay: Biodistribution of the ^125I-labelled molecules in the melanoma-bearing mouse (autoradiography of whole-body sections)
Settings: 6 H after i.v. administration, ^125I-labelled compound
Structures can show the parent of a compound that is named as a salt.
Reported Concentration of radioactivity, muscle (skeletal muscle), Mean values are given for each entry in this list.
Dear colleague, please return just the value in % ID/g, with no unit written.

Solved entries:
{"compound": "CCN(CC)CCNC(=O)c1ccc2cc(I)ccc2c1 [compound 3, hydrochloride]", "result unit": "% ID/g", "test result": 0.38}
{"compound": "CCN(CC)CCNC(=O)c1cc2cc(I)ccc2[nH]1 [compound 10, hydrochloride]", "result unit": "% ID/g", "test result": 0.31}

Note to self: Concentration of radioactivity, muscle (skeletal muscle), Mean recorded for CCN(CC)CCNC(=O)c1ccc(I)nc1 [compound 7, dihydrochloride] was 0.53

Note to self: Concentration of radioactivity, muscle (skeletal muscle), Mean recorded for CCN(CC)CCNC(=O)c1ccc2cc(I)ccc2n1.Cl.Cl [compound 31] was 0.95

----------
Reported Concentration of radioactivity, uvea (pigmented tissues of the eye), Mean values are given for each entry in this list.
Tested on: grafted B16 F0 murine melanoma tumour
Assay: Biodistribution of the ^125I-labelled molecules in the melanoma-bearing mouse (autoradiography of whole-body sections)
Details: 24 H after i.v. administration, ^125I-labelled compound
Counter-ions that a name gives are not always drawn.
A complete answer gives the number and then names the unit.

Solved entries:
{"molecule": "CCN(CC)CCNC(=O)c1cc2cc(I)ccc2[nH]1 [compound 10, hydrochloride]", "experimental target": "grafted B16 F0 murine melanoma tumour", "test result": "8.81 % ID/g"}
{"molecule": "CCN(CC)CCNC(=O)c1nc2ccc(I)cc2[nH]1.Cl.Cl", "experimental target": "grafted B16 F0 murine melanoma tumour", "test result": "10.44 % ID/g"}
{"molecule": "CCN(CC)CCNC(=O)c1ccc(I)nc1 [compound 7, dihydrochloride]", "experimental target": "grafted B16 F0 murine melanoma tumour", "test result": "6.07 % ID/g"}
{"molecule": "CCN(CC)CCNC(=O)c1nc2ccccn2c1I [compound 16, dihydrochloride]", "experimental target": "grafted B16 F0 murine melanoma tumour", "test result": "11.17 % ID/g"}
{"molecule": "CCN(CC)CCNC(=O)c1ccc2cc(I)ccc2c1 [compound 3, hydrochloride]", "experimental target": "grafted B16 F0 murine melanoma tumour", "test result": "12.28 % ID/g"}

Note to self: Concentration of radioactivity, uvea (pigmented tissues of the eye), Mean recorded for CCN(CC)CCNC(=O)c1cc2c(I)cccc2s1.Cl was 11.06 % ID/g

Note to self: Concentration of radioactivity, uvea (pigmented tissues of the eye), Mean recorded for CCN(CC)CCNC(=O)c1ccc2cc(I)ccc2n1.Cl.Cl was 22.27 % ID/g

----------
Test system: grafted B16 F0 murine melanoma tumour
Experiment: Biodistribution of the ^125I-labelled molecules in the melanoma-bearing mouse (autoradiography of whole-body sections)
Conditions: 1 H after i.v. administration, ^125I-labelled compound
Would you please tag the item satisfied when its Concentration of radioactivity, Ic (intestinal contents), Mean is 20 % ID/g or above, and not satisfied when it is below?

Enquiry: Hello, I need to know if CCN(CC)CCNC(=O)c1cc2c(I)cccc2s1.Cl [compound 13] has measured Concentration of radioactivity, Ic (intestinal contents), Mean not below 20 % ID/g. Thanks!
Return: satisfied

----------
Tested on: grafted B16 F0 murine melanoma tumour
Test: Biodistribution of the ^125I-labelled molecules in the melanoma-bearing mouse (autoradiography of whole-body sections)
Settings: B 16 tumour; 6 H
Structures can show the parent of a compound that is named as a salt.
Would you please tag the item T when its Biodistribution, Mean, B 16 is 8 or above, and F when it is below?

Solved entries (count: 4):
{"compound": "CCN(CC)CCNC(=O)c1cccc2cc3cc(I)ccc3nc12 [compound 111, dihydrochloride]", "experimental target": "grafted B16 F0 murine melanoma tumour", "class label": "F"}
{"compound": "CCN(CC)CCNC(=O)c1ccc2cncc(I)c2n1.Cl.Cl", "experimental target": "grafted B16 F0 murine melanoma tumour", "class label": "T"}
{"compound": "CCN(CC)CCNC(=O)c1cnc2cc(I)ccc2n1.Cl.Cl", "experimental target": "grafted B16 F0 murine melanoma tumour", "class label": "T"}
{"compound": "CCN(CC)CCNC(=O)c1c[nH]c2ccc(I)cc2c1=O [compound 35, dihydrochloride]", "experimental target": "grafted B16 F0 murine melanoma tumour", "class label": "F"}

Enquiry: Hello, I need to know if CCCN(CCC)CCCCNC(=O)c1ccc2cc(I)ccc2n1 [compound 49, dihydrochloride] has measured Biodistribution, Mean, B 16 not below 8. Thanks!
Return: T

Provenance of the data: patent US20100061928A1
